Test system: E. faecium (NTCC12697) biofilm
Format: cell-based, Enterococcus faecium
Conditions: biofilm inhibitory rate more than 90%
Residues, ends and D or L forms follow the SMILES beside them.
measured.quantity: MBIC

molecule="CC[C@H](C)[C@H](NC(=O)[C@H](CCCNC(=N)N)NC(=O)[C@@H]1CCCN1C(=O)[C@H](CC(C)C)NC(=O)[C@@H](N)CCCNC(=N)N)C(=O)N[C@@H](CC(C)C)C(=O)N[C@@H](CCCNC(=N)N)C(=O)N[C@@H](CCCCN)C(=O)N[C@H](C(=O)N[C@H](C(=O)N[C@@H](CCCNC(=N)N)C(=O)N[C@@H](C)C(=O)N[C@@H](CC(C)C)C(N)=O)C(C)C)[C@@H](C)CC [Crabrolin-FR, RLPRILRKIVRAL-NH2] (H-RLPRILRKIVRAL-NH2)" measured_on="E. faecium (NTCC12697) biofilm" result="32 µM"

Attention now turns to another entry.
For CC[C@H](C)[C@H](NC(=O)[C@H](CCCNC(=N)N)NC(=O)[C@@H]1CCCN1C(=O)[C@H](CC(C)C)NC(=O)[C@@H](N)Cc1ccccc1)C(=O)N[C@@H](CC(C)C)C(=O)N[C@@H](CCCNC(=N)N)C(=O)N[C@@H](CCCCN)C(=O)N[C@H](C(=O)N[C@H](C(=O)N[C@H](C(=O)N[C@@H](C)C(=O)N[C@@H](CC(C)C)C(N)=O)[C@@H](C)O)C(C)C)[C@@H](C)CC [Crabrolin-4R, FLPRILRKIVTAL-NH2] (H-FLPRILRKIVTAL-NH2) on E. faecium (NTCC12697) biofilm, measured MBIC was 16 µM

###

Tested on: E. faecium (NTCC12697) biofilm
Format: cell-based, Enterococcus faecium
Conditions: eradication rate greater than 99.9%
Residues, ends and D or L forms follow the SMILES beside them.
measured.quantity: MBEC

compound="CC[C@H](C)[C@H](NC(=O)[C@H](CCCNC(=N)N)NC(=O)[C@@H]1CCCN1C(=O)[C@H](CC(C)C)NC(=O)[C@@H](N)CCCNC(=N)N)C(=O)N[C@@H](CC(C)C)C(=O)N[C@@H](CCCNC(=N)N)C(=O)N[C@@H](CCCCN)C(=O)N[C@H](C(=O)N[C@H](C(=O)N[C@@H](CCCNC(=N)N)C(=O)N[C@@H](CCCNC(=N)N)C(=O)N[C@@H](CC(C)C)C(N)=O)C(C)C)[C@@H](C)CC [Crabrolin-AR, RLPRILRKIVRRL-NH2] (H-RLPRILRKIVRRL-NH2)" measured_on="E. faecium (NTCC12697) biofilm" result="> 512 µM"

MBEC reading for CC[C@H](C)[C@H](NC(=O)[C@H](CC(C)C)NC(=O)[C@@H]1CCCN1C(=O)[C@H](CC(C)C)NC(=O)[C@@H](N)Cc1ccccc1)C(=O)N[C@@H](CC(C)C)C(=O)N[C@@H](CCCNC(=N)N)C(=O)N[C@@H](CCCCN)C(=O)N[C@H](C(=O)N[C@H](C(=O)N[C@H](C(=O)N[C@@H](C)C(=O)N[C@@H](CC(C)C)C(N)=O)[C@@H](C)O)C(C)C)[C@@H](C)CC [Crabrolin, FLPLILRKIVTAL-NH2] (H-FLPLILRKIVTAL-NH2) : > 512 µM
